- target: SST2 (Homo sapiens, UniProt P30874)
- Construct: host or cells: PathHunter CHO-K1 SST2 cells
- Sequence (P30874 whole entry): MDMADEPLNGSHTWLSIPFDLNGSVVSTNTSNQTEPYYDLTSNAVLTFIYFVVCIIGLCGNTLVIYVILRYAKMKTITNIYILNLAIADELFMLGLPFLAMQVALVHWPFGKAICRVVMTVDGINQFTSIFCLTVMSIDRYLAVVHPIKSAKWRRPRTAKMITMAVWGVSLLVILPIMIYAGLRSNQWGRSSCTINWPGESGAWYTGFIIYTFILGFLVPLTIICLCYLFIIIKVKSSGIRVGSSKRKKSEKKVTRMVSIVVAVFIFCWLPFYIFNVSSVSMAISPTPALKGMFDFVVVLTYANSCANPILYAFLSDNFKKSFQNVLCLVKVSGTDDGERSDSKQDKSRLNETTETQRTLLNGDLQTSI
- measurement_notes: PathHunter CHO-K1 SST2 Internalization Assay
- Type: cell-based
- run_parameters: PathHunter CHO-K1 SST2 cells; 90 min at 37 C; luminescence; read-out: Internalization EC50
quantity_measured: pEC50
In simple prose, pEC50 is minus the logarithm base ten of a concentration in moles per litre.

Reference set (3 entries):
smiles_record=CC[C@H](C)[C@@H]([C@@H](CC(=O)N1CCC[C@H]1[C@H](OC)[C@@H](C)C(=O)N[C@H](C)[C@@H](O)c1ccccc1)OC)N(C)C(=O)[C@@H](NC(=O)[C@H](C(C)C)N(C)C(=O)OCc1ccc(NC(=O)[C@H](CCCNC(N)=O)NC(=O)[C@@H](NC(=O)CN(C)C(=O)CCOCCC(=O)NCCNc2ncc(-c3cc(C)cc(F)c3)c(N3CCC(N)CC3)c2-c2nc3ccc(Cl)cc3[nH]2)C(C)C)cc1C(=O)NCC(=O)O)C(C)C target="SST2 (Homo sapiens, UniProt P30874)" number=8.12
smiles_record=CC[C@H](C)[C@@H]([C@@H](CC(=O)N1CCC[C@H]1[C@H](OC)[C@@H](C)C(=O)N[C@H](C)[C@@H](O)c1ccccc1)OC)N(C)C(=O)[C@@H](NC(=O)[C@H](C(C)C)N(C)C(=O)OCc1ccc(NC(=O)[C@H](C)NC(=O)[C@@H](NC(=O)CCOCCC(=O)NCCNc2ncc(-c3cc(C)cc(F)c3)c(N3CC[C@H]4NCCO[C@@H]4C3)c2-c2nc3ccc(Cl)cc3[nH]2)C(C)C)c(O[C@@H]2O[C@H](C(=O)O)[C@@H](O)[C@H](O)[C@H]2O)c1)C(C)C target="SST2 (Homo sapiens, UniProt P30874)" number=5.89
smiles_record=CC[C@H](C)[C@@H]([C@@H](CC(=O)N1CCC[C@H]1[C@H](OC)[C@@H](C)C(=O)N[C@H](C)[C@@H](O)c1ccccc1)OC)N(C)C(=O)[C@@H](NC(=O)[C@H](C(C)C)N(C)C(=O)OCc1ccc(NC(=O)[C@H](CCCNC(N)=O)NC(=O)[C@@H](NC(=O)c2cc(OCCOCCOCCOCCOCCC(=O)NCCNc3ncc(-c4cc(C)cc(F)c4)c(N4CCC(N)CC4)c3-c3nc4ccc(Cl)cc4[nH]3)cc(C(=O)NCC(=O)O)c2)C(C)C)cc1)C(C)C target="SST2 (Homo sapiens, UniProt P30874)" number=8.04

Incoming: // fetch SST2 (Homo sapiens, UniProt P30874) pEC50 for "CC[C@H](C)[C@@H]([C@@H](CC(=O)N1CCC[C@H]1[C@H](OC)[C@@H](C)C(=O)N[C@H](C)[C@@H](O)c1ccccc1)OC)N(C)C(=O)[C@@H](NC(=O)[C@H](C(C)C)N(C)C(=O)OCc1ccc(NC(=O)[C@H](CCCNC(N)=O)NC(=O)[C@@H](NC(=O)[C@@H](NC(=O)CCOCCC(=O)NCCNc2ncc(-c3cc(C)cc(F)c3)c(N3CCC(N)CC3)c2-c2nc3ccc(Cl)cc3[nH]2)c2cnn(C)c2)C(C)C)c(OCC(=O)O)c1)C(C)C"
Outgoing: 8.11

Incoming: // fetch SST2 (Homo sapiens, UniProt P30874) pEC50 for "CC[C@H](C)[C@@H]([C@@H](CC(=O)N1CCC[C@H]1[C@H](OC)[C@@H](C)C(=O)N[C@H](C)[C@@H](O)c1ccccc1)OC)N(C)C(=O)[C@@H](NC(=O)[C@H](C(C)C)N(C)C(=O)OCc1ccc(NC(=O)[C@H](CCCNC(N)=O)NC(=O)[C@@H](NC(=O)c2cc(NCCCCCC(=O)N(C)CC(=O)NCCNc3ncc(-c4cc(C)cc(F)c4)c(N4CCC(N)CC4)c3-c3nc4ccc(F)cc4[nH]3)cc(C(=O)NCC(=O)O)c2)C(C)C)cc1)C(C)C"
Outgoing: 8.24
